Just for reference, PubChem BioAssay is where these values come from.

Reported values of nuclei count for individual entries
Experiment: inhibitors of E-selectin induction by TNFa, primary screen, imaging, HUVEC, immunofluorescence, MLSMR starter and 10KST1 sets (AID 487);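 as to nuclei count: 100% = median nuclei count of all wells on the same plate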
Conditions: HUVEC TNFalpha-induced E-selectin immunofluorescence imaging, at 2 µM; measured here: cell number, toxicity

molecule | nuclei count / %
Cc1ccc(C2C(C(=O)c3cc4ccccc4o3)=C(O)C(=O)N2CCCN(C)C)cc1 (stereo not given) | 161
COc1cc(=O)n2c(-c3ccccc3)csc2n1 | 153
Cc1ccnc(N2CCN(c3cc(C)c(C#N)c4nc5ccccc5n34)CC2)c1 | 125
CCOC(=O)C1=C[C@]2(CC)CCCN3CCc4c(n1c1ccccc41)[C@@H]32 | 130
Cc1ccc(S(=O)(=O)c2cc3c(=O)n4ccccc4nc3n(C)c2=N)cc1 | 162
CC(C)c1cc(NCCCN2CCOCC2)n2c(nc3ccccc32)c1C#N | 155
CCCCN(CCCC)c1nc2ccccc2nc1C(C#N)C(=O)NCCCOC (stereo not given) | 156
CC(=O)[C@@]1(O)CC[C@H]2[C@@H]3CCC4=CC(=O)CC[C@]4(C)[C@H]3[C@@H](O)C[C@@]21C | 140
COc1cccc(-c2nnc3sc(-c4ccc(Cl)cc4)nn23)c1 | 102
O=C(NCc1ccco1)c1ccc(=O)oc1 | 167

====

Experiment: inhibitors of Chlamydomonas gravitaxis, primary screen, whole organism, Chlamydomonas reinhardtii, WT vs cilia-less mutant, absorbance, 96-well (AID 463189);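 also: 0% = wild type cc124 cells in DMSO and 100% = ciliumless bld1 mutant cells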
Conditions: OD600 absorbance, 2 days, at 10 µM, stronger effect = higher value
Reported values of inhibition for individual entries

molecule | unit-of-measurement | inhibition
Cn1nnc2c(sc3nc(N4CCOCC4)c4c(c32)CCCC4)c1=O | % | -8.88
C=CCOC(=O)C(C#N)c1nc2ccccc2nc1N1CCC(C(=O)OCC)CC1 (stereo unspecified) | % | 13.6
CCOC(=O)c1oc2cc(O)cc(C)c2c(=O)c1-c1cscn1 | % | -5.6
C=CCNC(=O)C(C#N)c1nc2ccccc2nc1N1CCCCCC1 (stereo unspecified) | % | 10.7
CCC1(C)Cc2c(sc3c2c(=O)n(C)c2nnc(SCc4ccccc4)n32)CO1 (stereo unspecified) | % | 16.4
Cc1nc(NS(=O)(=O)c2ccccc2)sc1NC(=O)OCCN(C)C | % | 34.8

====

Target: Solute carrier family 12 member 5 (Homo sapiens) (UniProt Q9H2X9)
Sequence (Q9H2X9 whole entry, looked up): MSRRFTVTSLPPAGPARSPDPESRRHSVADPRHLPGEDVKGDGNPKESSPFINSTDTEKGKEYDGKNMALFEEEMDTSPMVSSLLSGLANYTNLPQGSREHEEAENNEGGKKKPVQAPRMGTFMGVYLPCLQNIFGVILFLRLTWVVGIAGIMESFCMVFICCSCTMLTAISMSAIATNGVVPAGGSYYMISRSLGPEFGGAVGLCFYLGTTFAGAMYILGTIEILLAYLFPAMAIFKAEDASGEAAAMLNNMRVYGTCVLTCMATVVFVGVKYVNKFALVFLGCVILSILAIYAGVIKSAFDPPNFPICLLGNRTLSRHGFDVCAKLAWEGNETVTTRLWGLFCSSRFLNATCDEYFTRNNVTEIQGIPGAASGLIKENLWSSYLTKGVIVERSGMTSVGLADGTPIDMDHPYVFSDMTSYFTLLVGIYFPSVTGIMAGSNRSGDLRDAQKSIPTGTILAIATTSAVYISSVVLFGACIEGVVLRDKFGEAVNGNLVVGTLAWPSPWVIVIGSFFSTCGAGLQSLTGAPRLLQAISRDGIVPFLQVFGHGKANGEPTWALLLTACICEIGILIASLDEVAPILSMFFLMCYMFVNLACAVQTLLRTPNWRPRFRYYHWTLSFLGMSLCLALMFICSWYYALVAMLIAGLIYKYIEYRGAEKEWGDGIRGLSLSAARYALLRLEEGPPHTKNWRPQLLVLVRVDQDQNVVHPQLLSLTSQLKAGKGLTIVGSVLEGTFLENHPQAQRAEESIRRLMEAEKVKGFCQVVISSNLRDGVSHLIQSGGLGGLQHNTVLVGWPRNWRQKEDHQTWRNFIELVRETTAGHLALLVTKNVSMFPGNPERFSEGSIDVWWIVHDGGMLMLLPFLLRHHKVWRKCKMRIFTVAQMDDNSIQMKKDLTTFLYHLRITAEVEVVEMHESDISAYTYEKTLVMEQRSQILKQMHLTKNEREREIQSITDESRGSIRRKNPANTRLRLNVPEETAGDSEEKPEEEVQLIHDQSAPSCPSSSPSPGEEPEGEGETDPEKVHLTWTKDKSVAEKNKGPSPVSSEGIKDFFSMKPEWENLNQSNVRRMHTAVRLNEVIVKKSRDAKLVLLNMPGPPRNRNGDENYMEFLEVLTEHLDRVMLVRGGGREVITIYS
Experiment: KCC2 modulators without ouabain present, confirmation, cell-based, HEK293 KCC2, thallium flux, FluoZin2, secondary assay 2 (AID 1715);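 also: raw slope with 0.1% DMSO as baseline and bumetanide as block control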
Details: HEK293-KCC2, thallium flux FluoZin2 fluorescence; at 10 µM; actives lie on both sides; F/F0 rise rate, 10–20 s post-thallium
The other results are listed elsewhere or left out. Results filed as inconclusive are left out.
The threshold is 0.03. Values of normalized thallium flux beneath it are tagged Met; values meeting or exceeding it are tagged Not met.

compound | category
COc1cc(OC)cc(C(=O)NCCSCc2ccco2)c1 | Met
CCn1c(=S)[nH]c2sc3c(c2c1=O)CCCCC3 | Not met
O=C(COC(=O)c1cc([N+](=O)[O-])ccc1NCc1ccccc1)NC1CCCCC1 | Met
O=C(Nc1ccccc1F)C1C2C=CC3(O2)C1C(=O)N(c1cccnc1)C3C(=O)NC1CCCCC1 (stereo unspecified) | Met
c1ccc2c(C[n+]3csc4ccccc43)cccc2c1 | Not met

====

Molecular target: Dual specificity protein phosphatase 6 (Homo sapiens) (UniProt Q16828)
Sequence (Q16828 whole entry, looked up): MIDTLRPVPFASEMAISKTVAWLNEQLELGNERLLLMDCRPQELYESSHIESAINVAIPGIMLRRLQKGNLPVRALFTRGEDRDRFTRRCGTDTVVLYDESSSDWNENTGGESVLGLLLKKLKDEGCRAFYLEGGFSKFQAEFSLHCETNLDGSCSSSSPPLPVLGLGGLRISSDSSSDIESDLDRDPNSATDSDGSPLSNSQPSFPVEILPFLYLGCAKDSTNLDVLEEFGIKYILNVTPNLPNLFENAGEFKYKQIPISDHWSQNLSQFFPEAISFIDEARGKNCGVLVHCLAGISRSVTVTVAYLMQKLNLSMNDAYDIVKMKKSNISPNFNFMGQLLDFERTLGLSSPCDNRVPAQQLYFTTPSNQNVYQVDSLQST
Experiment: DUSP6 inhibitors restoring Erk phosphorylation by chemical complementation, primary imaging in DUSP6-transfected HeLa (AID 609);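 as to inhibition: phospho-Erk level distribution per well compared with pooled transfected vehicle control wells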
Conditions: HeLa MKP-3 transfected, phospho-Erk imaging KS statistic; at 10 µM; stronger effect = higher value; cells stimulated with TPA for 15 min

compound | inhibition [%]
Cc1[nH]nc2cn[nH]c12 | -5.89
CCOC(=O)c1[nH]c2ccc(OC)cc2c1NC(=O)CCN1CCN(Cc2ccccc2)CC1 | 1.12
Cc1cc(C)nc(NC2=NCC(=O)N2c2ccccc2)n1 | 3.97
COc1ccc(-c2nn3c(-c4ccccn4)nnc3s2)cc1OC | -2.47
CCCC1C2C(=O)N(c3ccccc3OC)C(=O)C2ON1c1ccccc1 (stereo unspecified) | 11.3
Cc1c(NC(=O)C(CC(=O)O)NCc2ccco2)c(=O)n(-c2ccccc2)n1C (stereo unspecified) | -5.26

====

Assay: DUSP6 inhibitors restoring Erk phosphorylation by chemical complementation, primary imaging in DUSP6-transfected HeLa (AID 609)
Conditions: HeLa MKP-3 transfected, phospho-Erk imaging KS statistic; measured here: cell density z-score; at 10 µM; cells stimulated with TPA for 15 min

compound | z-score
C#CCSC1=C(C#N)C(c2cccs2)C(C(=O)OCC)=C(C)N1 (stereo unspecified) | -0.719
CCOc1ccc(-n2c3nc4ccccc4nc3c3c(=O)n(Cc4ccco4)cnc32)cc1 | 0.174
CCOc1ccc(C2C(C(=O)c3ccc(C)o3)=C(O)C(=O)N2CCCN(CC)CC)cc1 (stereo unspecified) | 1.15
COc1ccc(-c2cc(=O)[nH]c(=O)[nH]2)cc1 | -0.456
Clc1ccccc1-c1nn2c(-c3ccccn3)nnc2s1 | 0.327
CC(=NC1CCCC1)c1c(C)[nH]n(-c2nc3ccccc3s2)c1=O | 0.859

====

Target: Dual specificity protein phosphatase 6 (Homo sapiens) (UniProt Q16828)
Test: DUSP6 inhibitors restoring Erk phosphorylation by chemical complementation, primary imaging in DUSP6-transfected HeLa (AID 609);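 as to inhibition: phospho-Erk level distribution per well compared with pooled transfected vehicle control wells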
Details: HeLa MKP-3 transfected, phospho-Erk imaging KS statistic; at 10 µM; stronger effect = higher value; cells stimulated with TPA for 15 min
Reported values of inhibition for individual entries

molecule | inhibition, %
CNC(=O)Nc1cccc(NC(=O)NC)n1 | 11.4
COC(=O)c1ccc(Cn2nnc3c(sc4nc(N5CCOCC5)c5c(c43)CCCC5)c2=O)o1 | 24.4
COC(=O)c1ccc(C(=O)OC)c(NC(=O)c2cc3ccccc3o2)c1 | 6.51
O=C(CN1C(=O)c2ccccc2S1(=O)=O)c1ccccc1 | 7.73
Cn1c(N2CCOCC2)nc2c1c(=O)n(Cc1ccc(Cl)cc1)c(=O)n2C | -2.09
COc1cccc(C2=CC(c3ccccc3)n3nnnc3N2)c1 (stereo unspecified) | -7.01

====

Assay: inhibitors of E-selectin induction by TNFa, primary screen, imaging, HUVEC, immunofluorescence, MLSMR starter and 10KST1 sets (AID 487);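 as to inhibition: signal is fraction of cell area covered by stained E-selectin grains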
Settings: HUVEC TNFalpha-induced E-selectin immunofluorescence imaging, at 2 µM; stronger effect = higher value
Active and inactive are the calls of the source.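 The calls were made as follows: active = visually confirmed hit in the image check and inhibition above 20%; inconclusive = visually confirmed hit but inhibition not above 20%; inactive = no visual hit in the image check.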
Reported values of inhibition for individual entries
value-kind: inhibition

compound | reported-value
N=c1c(C(=O)NCc2ccccc2)cc2c(=O)n3ccccc3nc2n1Cc1ccco1 | -250% (inactive)
COC(=O)[C@@H](N)Cc1ccc(O)cc1 | -9.7% (inactive)
CC(C)Cn1nc(NC(=O)C(C)(C)C)c2cc3ccccc3nc21 | -86.4% (inactive)
CCOC(=O)CCc1c(C)c(C#N)c2nc3ccccc3n2c1-n1ccnc1C | -125% (inactive)
CC(C)OC(=O)C(C)(C)Oc1ccc(C(=O)c2ccc(Cl)cc2)cc1 | -10.1% (inactive)
Cc1cc(C)nc(NC2=NCC(=O)N2c2ccccc2)n1 | -130% (inactive)
CCCCNC(=O)C(C#N)c1nc2ccccc2nc1N1CCN(c2ccccc2F)CC1 (stereo unspecified) | -12% (inactive)
COCc1cc(C)nc(SCC(=O)Nc2ccc(C)c(C)c2)c1C#N | -92.9% (inactive)
CCCC1Cc2c(sc3ncnc(N)c23)CO1 (stereo unspecified) | -49.3% (inactive)
CCOC(=O)c1c(C)n(C)c2ccc(OC)c(NC(=O)CN3CCN(Cc4ccccc4)CC3)c12 | -14% (inactive)
N#Cc1ccc(-c2cccnc2)nc1SCC(=O)Nc1sc2c(c1C#N)CCC2 | -101% (inactive)

====

Biological target: Dual specificity protein phosphatase 6 (Homo sapiens)
Assay: DUSP6 inhibitors restoring Erk phosphorylation by chemical complementation, primary imaging in DUSP6-transfected HeLa (AID 609);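 as to inhibition: phospho-Erk level distribution per well compared with pooled transfected vehicle control wells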
Conditions: HeLa MKP-3 transfected, phospho-Erk imaging KS statistic; at 10 µM; stronger effect = higher value; cells stimulated with TPA for 15 min

compound | inhibition / %
CC(C)COc1nc2ccccc2nc1C(C#N)C(=O)NC1CCCCC1 (stereo unspecified) | -5.26
CC1(C)Cc2c(sc3c2C2=NCCN2C=N3)CO1 | -2.69
CCN(CC)CCCN1C(=O)C(=O)/C(=C(/O)c2ccc(C)cc2)C1c1ccccn1 (stereo unspecified) | -2.29
O=C(O)CCSc1ccc2ccccc2n1 | 15.8
O=C(NC1CCCCC1)N1CCSC1=Nc1ccccc1 | 24.4
C[C@]12C=CC(=O)C=C1CC[C@@H]1[C@@H]2[C@@H](O)C[C@@]2(C)[C@H]1CC[C@]2(O)C(=O)COC(=O)CCC(=O)O | 19.2
O=C(c1ccc(=O)oc1)N1CCN(c2ccc(F)cc2)CC1 | 17.4
CNC(=O)c1cc2c(ccc3ccccc32)oc1=N | -0.159
CC(C)OC(=O)c1nn2c(C(F)(F)F)cc(-c3ccc(Br)o3)nc2c1Br | -9.7
CN1CCCN(C(c2ccccc2)c2ccc(Cl)cc2)CC1 (stereo unspecified) | -5.24
CCOCCSc1nc2c(c(=O)[nH]c(=O)n2C)n1CCCc1ccccc1 | -3.5
